biological target: wild type FGFR-1 (Homo sapiens)
Sequence (P11362 22-822): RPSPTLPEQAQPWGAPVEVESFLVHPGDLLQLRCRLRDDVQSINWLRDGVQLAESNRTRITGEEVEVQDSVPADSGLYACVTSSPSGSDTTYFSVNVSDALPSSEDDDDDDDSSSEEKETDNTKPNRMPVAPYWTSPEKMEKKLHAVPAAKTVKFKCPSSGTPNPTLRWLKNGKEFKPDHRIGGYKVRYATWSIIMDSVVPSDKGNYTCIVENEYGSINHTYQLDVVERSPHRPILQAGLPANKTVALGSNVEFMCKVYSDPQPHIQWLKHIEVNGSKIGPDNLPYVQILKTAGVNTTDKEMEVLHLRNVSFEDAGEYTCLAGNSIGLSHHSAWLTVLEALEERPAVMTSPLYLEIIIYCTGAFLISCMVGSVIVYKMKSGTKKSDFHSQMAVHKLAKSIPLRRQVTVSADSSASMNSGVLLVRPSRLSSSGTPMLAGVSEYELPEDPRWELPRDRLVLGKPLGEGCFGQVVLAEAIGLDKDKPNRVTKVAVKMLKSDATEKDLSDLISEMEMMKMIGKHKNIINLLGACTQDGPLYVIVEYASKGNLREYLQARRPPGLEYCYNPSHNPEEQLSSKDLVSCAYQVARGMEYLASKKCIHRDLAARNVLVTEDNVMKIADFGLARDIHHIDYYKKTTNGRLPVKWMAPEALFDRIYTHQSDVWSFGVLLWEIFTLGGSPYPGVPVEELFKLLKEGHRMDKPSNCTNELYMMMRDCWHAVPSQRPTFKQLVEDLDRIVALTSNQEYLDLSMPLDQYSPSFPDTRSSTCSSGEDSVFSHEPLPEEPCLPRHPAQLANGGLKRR
Test Readout: IC50

wild type FGFR-1 (Homo sapiens) assay, molecule C=CC(=O)Nc1ccc(CCn2c(=O)c(-c3c(Cl)c(OC)cc(OC)c3Cl)cc3cnc(Nc4c(C)cccc4NC(=O)C=C)nc32)cc1 , recorded IC50 = > 1000 nM

====

biological target: wild type FGFR-2 (Homo sapiens)
Sequence (P21802 22-821): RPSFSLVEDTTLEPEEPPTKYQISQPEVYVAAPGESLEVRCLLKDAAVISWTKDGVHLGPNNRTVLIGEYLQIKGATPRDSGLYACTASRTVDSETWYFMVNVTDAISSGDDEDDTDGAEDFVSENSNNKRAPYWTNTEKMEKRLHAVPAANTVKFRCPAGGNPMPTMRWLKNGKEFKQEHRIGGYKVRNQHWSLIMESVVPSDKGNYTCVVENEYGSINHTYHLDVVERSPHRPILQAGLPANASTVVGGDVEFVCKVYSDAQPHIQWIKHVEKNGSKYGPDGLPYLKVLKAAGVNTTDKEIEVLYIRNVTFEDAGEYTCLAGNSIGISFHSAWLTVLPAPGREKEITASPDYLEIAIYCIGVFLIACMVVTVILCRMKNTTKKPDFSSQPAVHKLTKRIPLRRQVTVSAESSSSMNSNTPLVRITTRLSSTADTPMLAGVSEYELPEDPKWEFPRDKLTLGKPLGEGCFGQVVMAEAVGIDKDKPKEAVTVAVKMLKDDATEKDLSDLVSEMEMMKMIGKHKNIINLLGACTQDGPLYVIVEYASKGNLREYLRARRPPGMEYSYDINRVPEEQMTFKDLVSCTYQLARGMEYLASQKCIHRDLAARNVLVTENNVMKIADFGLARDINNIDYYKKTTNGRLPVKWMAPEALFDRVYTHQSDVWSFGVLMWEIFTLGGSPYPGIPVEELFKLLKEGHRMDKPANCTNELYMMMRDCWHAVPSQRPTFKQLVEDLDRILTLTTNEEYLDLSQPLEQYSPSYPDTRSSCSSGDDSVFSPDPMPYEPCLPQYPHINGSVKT
Test Readout: IC50

wild type FGFR-2 (Homo sapiens) assay, molecule C=CC(=O)Nc1ccc(CCn2c(=O)c(-c3c(Cl)c(OC)cc(OC)c3Cl)cc3cnc(Nc4c(C)cccc4NC(=O)C=C)nc32)cc1 , recorded IC50 = > 1 µM

====

molecular target: UniProtKB P22607
Sequence (P22607 23-806): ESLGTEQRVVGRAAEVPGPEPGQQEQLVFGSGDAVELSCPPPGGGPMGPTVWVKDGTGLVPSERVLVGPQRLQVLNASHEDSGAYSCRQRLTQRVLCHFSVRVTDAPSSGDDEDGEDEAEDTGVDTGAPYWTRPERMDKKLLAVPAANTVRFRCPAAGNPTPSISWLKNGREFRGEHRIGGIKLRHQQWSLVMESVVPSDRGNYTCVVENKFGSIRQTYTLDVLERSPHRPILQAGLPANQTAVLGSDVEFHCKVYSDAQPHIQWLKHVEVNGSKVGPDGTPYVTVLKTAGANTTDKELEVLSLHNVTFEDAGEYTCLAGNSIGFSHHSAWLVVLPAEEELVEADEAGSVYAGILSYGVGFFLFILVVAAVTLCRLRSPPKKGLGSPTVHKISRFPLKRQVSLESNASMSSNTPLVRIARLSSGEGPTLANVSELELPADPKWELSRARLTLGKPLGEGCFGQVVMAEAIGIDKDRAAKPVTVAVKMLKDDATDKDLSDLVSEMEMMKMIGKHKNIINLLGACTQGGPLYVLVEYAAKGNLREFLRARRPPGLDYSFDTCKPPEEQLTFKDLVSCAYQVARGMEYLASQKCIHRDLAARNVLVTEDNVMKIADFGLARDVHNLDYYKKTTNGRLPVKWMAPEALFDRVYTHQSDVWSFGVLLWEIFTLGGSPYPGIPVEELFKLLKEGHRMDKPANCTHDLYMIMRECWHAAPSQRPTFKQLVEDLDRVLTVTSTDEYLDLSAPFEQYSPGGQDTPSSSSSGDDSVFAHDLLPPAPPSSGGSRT
Test Readout: IC50

Record summary for C=CC(=O)Nc1ccc(Cn2c(=O)c(-c3c(Cl)c(OC)cc(OC)c3Cl)cc3cnc(Nc4c(C)cccc4NC(=O)C=C)nc32)cc1 : reported IC50 = > 1000 nM
